Data provenance: PubChem BioAssay AID463203

# Experimental Target: Glycogen synthase kinase-3 alpha (Homo sapiens) (UniProt P49840)
# Sequence (P49840 whole entry, looked up): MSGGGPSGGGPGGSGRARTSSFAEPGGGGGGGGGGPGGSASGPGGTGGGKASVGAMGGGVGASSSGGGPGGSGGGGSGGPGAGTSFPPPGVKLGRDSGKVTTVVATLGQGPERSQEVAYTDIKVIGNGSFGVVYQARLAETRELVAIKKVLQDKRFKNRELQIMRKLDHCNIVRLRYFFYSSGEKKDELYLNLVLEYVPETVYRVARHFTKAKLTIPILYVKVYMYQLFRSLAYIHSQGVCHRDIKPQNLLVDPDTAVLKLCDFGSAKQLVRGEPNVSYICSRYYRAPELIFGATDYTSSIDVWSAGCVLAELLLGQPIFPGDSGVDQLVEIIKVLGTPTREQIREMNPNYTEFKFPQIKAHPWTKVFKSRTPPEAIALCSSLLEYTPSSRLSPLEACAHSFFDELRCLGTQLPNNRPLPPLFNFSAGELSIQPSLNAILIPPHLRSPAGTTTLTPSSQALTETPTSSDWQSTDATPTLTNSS
# Run Description: concentration-response blocking of human GSK3A – biochemical, luminescence, cell-free homogeneous, retest, dose response (AID 463203)
# Measurement Setup: GSK-3 alpha enzyme, ADP-Glo luminescence, 60 min
The source made the active and inactive calls.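 Rule for the calls: active = more than half of replicate measurements showing over 20% loss of kinase signal relative to plate controls; inconclusive = some but at most half of replicates over 20% loss; inactive = no replicate over 20% signal loss.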
Assign a class; possible classes are t for active, f for inactive

Before answering, review these 5 worked examples.
Compound: Cc1onc(-c2ccccc2Cl)c1C(=O)Nc1cccc(-c2nc3ncccn3c2C)c1
Assigned Class: f
--
Compound: C[C@@H]1O[C@@H](Oc2c(-c3ccc(O)c(O)c3)oc3cc(O)cc(O)c3c2=O)[C@H](O)[C@H](O)[C@H]1O
Assigned Class: t
--
Compound: COc1ccc(NC(=O)CNc2cccc(S(=O)(=O)N3CCCCCC3)c2)c([N+](=O)[O-])c1
Assigned Class: f
--
Compound: COc1ccc(/C=C2\Oc3cc(OCC(=O)N4CC(O)C[C@H]4C(=O)O)ccc3C2=O)cc1OC (stereo partly specified)
Assigned Class: f
--
Compound: CC1CN(c2nc(Nc3ccccc3F)nc(N)c2[N+](=O)[O-])CC(C)O1 (stereo unspecified)
Assigned Class: t

Now for another entry.
Data request: Lab log entry: O=C(CSc1nc2[nH]ncc2c(=O)n1-c1ccccc1)NCCc1ccccc1 — outcome as called in the assay?
Data returned: t
